Where these numbers come from: patent US20190135834A1

# maps each entry to its Emax
- assay_system: Human AMPK α2ß2γ1 (Homo sapiens, UniProt O43741+P54646)
- Construct: The full length cDNAs of human AMPK ß2 (NM_005399.3) and human AMPK α2 (NM_006252.3); The full length cDNAs of human AMPK ß2 (NM_005399.3); 6xHis (N); made in house; host or cells: Escherichia coli BL21 CodonPlus (DE3)-RIL
- Sequence (P54646 whole entry): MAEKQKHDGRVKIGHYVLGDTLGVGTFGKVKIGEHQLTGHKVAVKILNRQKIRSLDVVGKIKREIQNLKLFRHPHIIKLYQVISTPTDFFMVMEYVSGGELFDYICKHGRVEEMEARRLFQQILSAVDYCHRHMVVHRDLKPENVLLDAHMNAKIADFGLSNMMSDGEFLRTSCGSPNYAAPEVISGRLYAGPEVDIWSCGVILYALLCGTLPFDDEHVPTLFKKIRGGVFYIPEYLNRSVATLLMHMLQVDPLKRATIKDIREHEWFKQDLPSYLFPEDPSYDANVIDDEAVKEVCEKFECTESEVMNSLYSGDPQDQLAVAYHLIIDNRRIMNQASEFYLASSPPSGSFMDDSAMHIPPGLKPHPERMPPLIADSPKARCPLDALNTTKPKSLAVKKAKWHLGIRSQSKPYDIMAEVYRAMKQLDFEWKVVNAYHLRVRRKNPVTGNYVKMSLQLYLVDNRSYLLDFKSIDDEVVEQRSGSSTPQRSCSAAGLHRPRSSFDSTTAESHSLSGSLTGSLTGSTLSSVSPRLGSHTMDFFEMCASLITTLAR
- Sequence (O43741 whole entry): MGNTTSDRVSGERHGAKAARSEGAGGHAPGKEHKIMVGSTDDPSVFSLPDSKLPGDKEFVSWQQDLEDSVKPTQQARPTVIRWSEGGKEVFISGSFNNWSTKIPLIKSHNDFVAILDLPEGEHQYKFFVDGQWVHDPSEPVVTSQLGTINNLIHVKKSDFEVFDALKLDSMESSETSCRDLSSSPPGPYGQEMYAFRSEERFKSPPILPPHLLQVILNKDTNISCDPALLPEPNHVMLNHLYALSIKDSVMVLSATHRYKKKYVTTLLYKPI
- Sequence (P54619 whole entry partner): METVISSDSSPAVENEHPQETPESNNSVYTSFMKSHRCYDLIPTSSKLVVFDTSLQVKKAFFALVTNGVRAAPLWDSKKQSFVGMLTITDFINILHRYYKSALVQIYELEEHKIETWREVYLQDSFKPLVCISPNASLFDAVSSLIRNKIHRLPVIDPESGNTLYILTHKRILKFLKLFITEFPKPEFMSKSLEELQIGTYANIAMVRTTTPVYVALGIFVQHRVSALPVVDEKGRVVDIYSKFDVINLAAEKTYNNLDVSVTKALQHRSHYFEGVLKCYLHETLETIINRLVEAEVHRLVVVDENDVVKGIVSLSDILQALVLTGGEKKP
- assay_method_text: Test Example 2: evaluation of an activator for AMP-activated protein kinase (AMPK), LabChip mobility shift assay with CaMKK2-phosphorylated enzyme
- Assay type: biochemical
- measurement_context: relative to control (100%), read-out: Emax (maximum rate of increase in activity within the measurement range)

>  <compound>
Cn1cc(-c2cnc3c(c2)CCC3Nc2nc3nc(O[C@@H]4CO[C@H]5[C@@H]4OC[C@H]5O)[nH]c3cc2Cl)cn1 (stereo partly shown)

>  <Emax, %>
614

$$$$
>  <compound>
O[C@@H]1CO[C@H]2[C@@H]1OC[C@H]2Oc1nc2nc(NC3CCc4cc(OCCOCC(F)F)cc(F)c43)c(Cl)cc2[nH]1 (stereo partly shown)

>  <Emax, %>
634

$$$$
>  <compound>
CC(C)(O)C#Cc1cc(F)c2c(c1)CC[C@@H]2Nc1nc2nc(O[C@@H]3CO[C@H]4[C@@H]3OC[C@H]4O)[nH]c2cc1Cl

>  <Emax, %>
650

$$$$
>  <compound>
CCOc1cc(F)c2c(c1)CCC2Nc1nc2nc(O[C@@H]3CO[C@H]4[C@@H]3OC[C@H]4O)[nH]c2cc1Cl (stereo partly shown)

>  <Emax, %>
382

$$$$
